Value source: PubChem BioAssay (Tox21)

# assay.remarks: A CellTox Green Cytotoxicity Assay to monitor cytotoxicity in HEK293 cells - 0 hour (AID 1224869); also: % is scaled to controls: 0 for no effect and ±100 for the full control effect; nearly all actives have a fitted effect of over 50% in size
# recorded.conditions: CellTox Green fluorescence; series mostly up to 76.8 µM
Activity calls are given as the source filed them. Calls follow the shape of the dose curve; as a rule, active = well fitted activation curve with a large enough effect in the repeat runs; inconclusive = weak or mixed curves; inactive = flat fitted curve, though single readings scatter.
property.name: cytotoxicity

Here is how some compounds turned out for cytotoxicity.
[
  {
    "compound": "CCCCNc1ccc(NCCCC)c2c1C(=O)c1ccccc1C2=O",
    "cytotoxicity": "1.41% [at 15.8 µM] (inactive)"
  },
  {
    "compound": "Clc1ccc2c(Cl)ccnc2c1",
    "cytotoxicity": "inactive"
  },
  {
    "compound": "S=C1NC=NC2N=CNC12 (stereo not given)",
    "cytotoxicity": "inactive"
  },
  {
    "compound": "CC/C=C\\C/C=C\\C/C=C\\CCCCCCCC(=O)OC",
    "cytotoxicity": "inactive"
  }
]

--- query ---
Let me know recorded cytotoxicity for NCc1cccc(C2CCN(C(=O)c3ccc(C#Cc4ccccc4F)o3)CC2)c1 , thanks.
inactive

====

# experimental.target: Cytochrome P450 3A4 (Homo sapiens) (UniProt P08684)
# Sequence (P08684 whole entry, looked up): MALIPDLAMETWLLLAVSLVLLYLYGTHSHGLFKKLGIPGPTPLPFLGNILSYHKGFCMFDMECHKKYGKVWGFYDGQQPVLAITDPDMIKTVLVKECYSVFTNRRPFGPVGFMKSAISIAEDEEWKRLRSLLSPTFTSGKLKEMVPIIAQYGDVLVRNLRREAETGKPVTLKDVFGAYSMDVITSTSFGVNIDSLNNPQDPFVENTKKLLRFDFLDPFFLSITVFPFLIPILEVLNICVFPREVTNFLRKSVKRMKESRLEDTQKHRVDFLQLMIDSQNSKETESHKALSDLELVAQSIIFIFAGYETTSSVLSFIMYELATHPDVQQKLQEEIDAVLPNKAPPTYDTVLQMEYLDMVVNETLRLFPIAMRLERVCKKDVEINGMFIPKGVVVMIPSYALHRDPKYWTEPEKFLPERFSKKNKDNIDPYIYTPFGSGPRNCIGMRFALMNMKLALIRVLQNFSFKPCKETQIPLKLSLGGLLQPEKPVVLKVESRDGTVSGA
# assay.remarks: Cytochrome P450 Family 3 Subfamily A Member 4 (CYP3A4) small molecule antagonists: luciferase reporter qHTS assay (AID 1671201); also: nearly all actives have a fitted effect of over 50% in size; also: potency is read from the fitted curve at half-maximal effect
# recorded.conditions: P450-Glo CYP3A4 enzyme, luciferin luminescence, 1 h; series mostly up to 115 µM
Inconclusive results are not listed. The source made the active and inactive calls. The call rests on the fitted dose curve; in most records, active means well fitted inhibition curve with a large enough effect in the repeat runs; inconclusive means weak or mixed curves; inactive means no such curve, though single readings can be large or run the other way.
property.name: Potency

[
  {
    "compound": "CCCCCc1ccc(O)cc1",
    "result": "inactive"
  },
  {
    "compound": "S=C1NC=NC2N=CNC12 (centres undefined)",
    "result": "inactive"
  },
  {
    "compound": "CC1CCC(C(C)(C)O)CC1 (centres undefined)",
    "result": "inactive"
  },
  {
    "compound": "CCC(C)(C)c1ccc(CC(C)CN2C[C@@H](C)O[C@@H](C)C2)cc1 (some centres undefined)",
    "result": "inactive"
  },
  {
    "compound": "CN1CC[C@H](c2c(O)cc(O)c3c(=O)cc(-c4ccccc4Cl)oc23)[C@H](O)C1",
    "result": "inactive"
  }
]

Please list Potency recorded for the compound O[Si](c1ccccc1)(c1ccccc1)c1ccccc1
inactive

Quickly give me recorded Potency for Cc1cc(Br)ccc1NC(=O)CCl
inactive

Return value of Potency for input c1ccc2c(c1)-c1ccc3ccc4cccc5cc-2c1c3c45 , no commentary.
inactive

State its Potency for this compound: O=C1CCCCCCCCCCCCCC1
35.6 µM (active)

Name the recorded Potency of the compound listed here: Cc1ccc(S(=O)(=O)C(I)I)cc1
39.9 µM (active)

Return Potency (reported value) for this compound: Brc1cc(Br)cc(Br)c1
inactive

Identify Potency associated with the compound [Cl][Eu]([Cl])[Cl]
inactive

Give the measured Potency for CC(Cc1ccc(O)c(O)c1)C(C)Cc1ccc(O)c(O)c1 (centres undefined)
35.6 µM (active)

Please list Potency recorded for the compound Clc1nc(C(Cl)(Cl)Cl)c(Cl)c(Cl)c1Cl
3.99 µM (active)

Return Potency (reported value) for this compound: NC(=O)c1ccccc1Cl
inactive

Tell us which Potency value is on record for CCC(O)CO (centres undefined)
inactive

Identify the reported Potency for the following entry. C=COCCCC
inactive

Kindly indicate its recorded Potency. Item: N#CCCOCCC#N
inactive

====

# experimental.target: Nuclear receptor subfamily 1 group I member 2 (Rattus norvegicus) (UniProt Q9R1A7)
# Sequence (Q9R1A7 whole entry, looked up): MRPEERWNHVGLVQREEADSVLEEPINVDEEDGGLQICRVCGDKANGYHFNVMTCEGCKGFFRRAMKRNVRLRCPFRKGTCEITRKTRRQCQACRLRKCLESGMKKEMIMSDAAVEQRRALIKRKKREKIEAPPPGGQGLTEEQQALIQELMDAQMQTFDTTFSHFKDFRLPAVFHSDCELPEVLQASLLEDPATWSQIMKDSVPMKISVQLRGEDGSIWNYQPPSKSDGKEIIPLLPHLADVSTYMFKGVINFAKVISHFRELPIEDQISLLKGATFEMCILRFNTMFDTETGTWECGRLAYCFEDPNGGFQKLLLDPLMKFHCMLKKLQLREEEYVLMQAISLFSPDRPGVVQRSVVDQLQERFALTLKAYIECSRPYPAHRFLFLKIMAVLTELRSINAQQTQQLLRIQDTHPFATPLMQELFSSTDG
# assay.remarks: Rat pregnane X receptor (rPXR) activation by small molecules, qHTS assay (AID 1346983); also: % is scaled to controls: 0 for no effect and ±100 for the full control effect; nearly all actives have a fitted effect of over 20% in size
# recorded.conditions: rPXR luciferase reporter cells, One-Glo luminescence, 24 h; stronger effect = higher value
Records with an inconclusive call do not appear. Calls of active or inactive are those of the source. The call rests on the fitted dose curve; in most records, active means well fitted activation curve with a large enough effect in the repeat runs; inconclusive means weak or mixed curves; inactive means no such curve, though single readings can be large or run the other way.
Field: max activation. Provide a value for each of the molecules that follow.

State its max activation for this molecule: CC[C@@H](C(=O)[C@@H](C)[C@@H](O)[C@H](C)CCc1ccc(C)c(O)c1C(=O)O)[C@H]1O[C@](CC)([C@H]2CC[C@](O)(CC)[C@H](C)O2)C[C@@H]1C
-6.82% (inactive)

Report measured max activation; entry is COc1cc2c(cc1O)CCN[C@]21CS[C@@H]2c3c(OC(C)=O)c(C)c4c(c3[C@H](COC1=O)N1[C@@H]2[C@H]2c3c(cc(C)c(OC)c3O)C[C@@H]([C@@H]1O)N2C)OCO4
-17.5% (inactive)

For the molecule CO/N=C(\C(=O)N[C@@H]1C(=O)N2C(C(=O)[O-])=C(C[n+]3cccc4c3CCC4)CS[C@H]12)c1csc(N)n1 , give its measured max activation value.
-2.77% (inactive)

Please give measured max activation of the following entry: CC(C)=CCC/C(C)=C/CC/C(C)=C/CC/C=C(\C)CC/C=C(\C)CCC=C(C)C
-2.04% (inactive)

State its max activation: CC1=C(/C=C/C(C)=C/C=C/C(C)=C/C=C/C=C(C)/C=C/C=C(C)/C=C/C2=C(C)CCCC2(C)C)C(C)(C)CCC1
-2.1% (inactive)

// Input: C=N[C@@H](C(=O)N[C@@H]1C(=O)N2[C@@H]1SC(C)(C)[C@@H]2C(=O)O)c1ccccc1 . Output its max activation only.
-2.74% (inactive)

Assign max activation to the following record: NCC1CCC(C(=O)O)CC1 (configuration not stated)
-1.27% (inactive)

Please indicate max activation recorded for CCCCCCCCCCCCCCCCCC(=O)O
-4.34% (inactive)

Provide only the value of recorded max activation for CC1CCCC(C)N1NC(=O)c1ccc(Cl)c(S(N)(=O)=O)c1 (configuration not stated)
-4.09% (inactive)

For the molecule O=C(O)c1cc(=O)c2c3nc4ccccc4oc-3cc(=O)c2[nH]1 , report max activation.
-7.15% (inactive)

Note max activation for the molecule shown: O=C1c2c(O)cccc2[C@H]([C@@H]2O[C@H](CO)[C@@H](O)[C@H](O)[C@H]2O)c2cc(CO)cc(O)c21
0.818% (inactive)

Note down max activation recorded for CC(C)NCC1CCc2cc(CO)c([N+](=O)[O-])cc2N1 (configuration not stated)
-0.344% (inactive)

Report max activation for Cc1cc(-c2ccc(N=Nc3ccc4c(S(=O)(=O)O)cc(S(=O)(=O)O)c(N)c4c3O)c(C)c2)ccc1N=Nc1ccc2c(S(=O)(=O)O)cc(S(=O)(=O)O)c(N)c2c1O
-5.28% (inactive)

Given Cc1cc(CC(C)CC(C)(C)C)n(O)c(=O)c1 (configuration not stated) (tested in a mixture with another compound) , respond with its max activation.
-3.3% (inactive)

Identify the reported max activation for the following entry. CC(C)(COP(=O)(O)OP(=O)(O)OC[C@H]1O[C@@H](n2cnc3c(N)ncnc32)[C@H](O)[C@@H]1OP(=O)(O)O)C(O)C(=O)NCCC(=O)NCCS (some centres not stated)
0.513% (inactive)

Write down max activation measured for item CN1CCN(CCCN2c3ccccc3Sc3ccc(C(F)(F)F)cc32)CC1
-11.2% (inactive)

Please give measured max activation of the following entry: OCCCNc1ccccc1
-0.22% (inactive)

====

# experimental.target: Cytochrome P450 2C9 (Homo sapiens) (UniProt P11712)
# Sequence (P11712 whole entry, looked up): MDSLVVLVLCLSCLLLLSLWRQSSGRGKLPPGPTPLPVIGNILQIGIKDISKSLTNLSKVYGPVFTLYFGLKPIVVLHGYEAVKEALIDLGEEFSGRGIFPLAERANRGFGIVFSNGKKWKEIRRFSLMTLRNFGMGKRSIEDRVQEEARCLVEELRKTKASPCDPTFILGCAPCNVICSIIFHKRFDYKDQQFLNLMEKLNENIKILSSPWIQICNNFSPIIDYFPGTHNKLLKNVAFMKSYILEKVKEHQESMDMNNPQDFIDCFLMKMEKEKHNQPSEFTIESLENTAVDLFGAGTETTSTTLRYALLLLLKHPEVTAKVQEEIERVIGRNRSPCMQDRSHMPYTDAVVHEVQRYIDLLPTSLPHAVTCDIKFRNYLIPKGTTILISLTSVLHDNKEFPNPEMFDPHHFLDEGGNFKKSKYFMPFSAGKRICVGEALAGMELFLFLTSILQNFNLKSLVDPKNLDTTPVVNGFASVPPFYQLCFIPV
# assay.remarks: Cytochrome P450 Family 2 Subfamily C Member 9 (CYP2C9) small molecule antagonists: luciferase reporter qHTS assay (AID 1671198); also: nearly all actives have a fitted effect of over 50% in size
# recorded.conditions: P450-Glo CYP2C9 enzyme assay, luciferin luminescence; series mostly up to 115 µM
Results filed as inconclusive are left out. The source made the active and inactive calls. Calls come from the whole dose curve; as a rule, active = well fitted inhibition curve with a large enough effect in the repeat runs; inconclusive = weak or mixed curves; inactive = no such curve, though single readings can be large or run the other way.
Return exactly one item of t (active), f (inactive)

Could you please tell me the result logged for Cc1cccc(C)c1C in this assay?
f

Assay result, entry O=S(=O)(c1ccc(OCc2ccccc2)cc1)c1ccccc1O — outcome?
t

Answer briefly: the call reported for O=C(c1ccccc1)c1ccc(Cl)cc1 in this assay.
t

Hey, what did the test say about CC(C)c1ccc2sc3ccccc3c(=O)c2c1 ?
t

How was O[Si](c1ccccc1)(c1ccccc1)c1ccccc1 classified in this test?
t

State the result this test recorded for C=CC(C)(C)O .
f

Could you kindly confirm the outcome this assay logged for CC1=CC[C@@H](C(C)(C)O)CC1 ?
f

Can you look up the reported call for CC(C)(C)c1cc(CCC(=O)OCCSCCOC(=O)CCc2cc(C(C)(C)C)c(O)c(C(C)(C)C)c2)cc(C(C)(C)C)c1O for me?
t

What was the test verdict on CCCCCCCC/C=C\CCCCCCCC(=O)N(CCO)CCO ?
t

Per the records of this test, what outcome belongs to NCc1ccco1 ?
f

For this molecule, state the assay outcome: CCC(C)(C)c1ccc(CC(C)CN2C[C@@H](C)O[C@@H](C)C2)cc1 (some centres not stated)
t

How was CN(C[C@@H](CC[N+]12CCC(C3CCCCC3)(CC1)CC2)c1ccc(Cl)c(Cl)c1)C(=O)c1cc(C(F)(F)F)cc(C(F)(F)F)c1 classified in this test?
t
